assaySystem: AHAS P197S-D376E-W574L (Arabidopsis thaliana, UniProt P17597, D376E/E575Q/P197S/W574L)
Sequence (P17597 56-670 P197S/D376E/W574L/E575Q): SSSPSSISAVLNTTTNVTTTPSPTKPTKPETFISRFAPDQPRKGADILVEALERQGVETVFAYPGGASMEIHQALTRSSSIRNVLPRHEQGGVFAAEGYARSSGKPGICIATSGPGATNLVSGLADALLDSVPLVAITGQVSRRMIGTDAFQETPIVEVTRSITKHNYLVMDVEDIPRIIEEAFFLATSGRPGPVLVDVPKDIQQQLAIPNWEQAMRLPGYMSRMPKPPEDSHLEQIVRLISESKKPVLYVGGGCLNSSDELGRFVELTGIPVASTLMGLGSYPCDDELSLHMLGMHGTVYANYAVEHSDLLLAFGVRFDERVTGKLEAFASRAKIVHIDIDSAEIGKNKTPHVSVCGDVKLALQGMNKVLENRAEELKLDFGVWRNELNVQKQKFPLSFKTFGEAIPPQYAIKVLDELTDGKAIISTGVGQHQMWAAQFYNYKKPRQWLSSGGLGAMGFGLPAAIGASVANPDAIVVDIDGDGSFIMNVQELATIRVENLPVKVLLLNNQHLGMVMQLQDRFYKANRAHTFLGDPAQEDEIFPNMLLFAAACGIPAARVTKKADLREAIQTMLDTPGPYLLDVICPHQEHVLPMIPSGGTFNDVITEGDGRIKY
procedureSummary: biochemical
assaySetup: AHAS P197S-D376E-W574L
The reader will find reported Resistance Factor values listed item by item below.

# compound, Resistance Factor
data = [
    ("COc1cc(OC)n2nc(NS(=O)(=O)c3c(C(F)(F)F)ccnc3OC)nc2n1", ">41368"),
    ("COc1cc(OC)nc(NC(=O)NS(=O)(=O)c2ncccc2C(F)(F)F)n1", ">120226"),
    ("COC(=O)c1ccc(C(F)(F)F)nc1S(=O)(=O)NC(=O)Nc1nc(OC)cc(OC)n1", ">47863"),
    ("CCCOc1nn(C(=O)[N-]S(=O)(=O)c2ccccc2C(=O)OC)c(=O)n1C.[Na+]", ">4641"),
    ("COc1ncc(F)c2nc(S(=O)(=O)Nc3c(F)cccc3F)nn12", ">6918"),
    ("COCc1cnc(C2=NC(C)(C(C)C)C(=O)N2)c(C(=O)O)c1 (stereo not drawn)", ">22"),
    ("COc1cc(OC)nc(Oc2cccc(Oc3nc(OC)cc(OC)n3)c2C(=O)O)n1 [Bispyribac-sodium, bispyribac-sodium]", ">5623"),
    ("COC(=O)c1ccc(CNS(C)(=O)=O)cc1S(=O)(=O)NC(=O)Nc1nc(OC)cc(OC)n1", ">64730"),
    ("COC(=O)c1ccccc1S(=O)(=O)NC(=O)Nc1nc(C)nc(OC)n1", ">7547"),
    ("COC(=O)c1csc(C)c1S(=O)(=O)NC(=O)n1nc(OC)n(C)c1=O", ">7399"),
    ("COc1cc(OC)nc(NC(=O)NS(=O)(=O)N(C)S(C)(=O)=O)n1", ">488"),
    ("COC(=O)c1ccc(I)cc1S(=O)(=O)[N-]C(=O)Nc1nc(C)nc(OC)n1.[Na+] [Iodosulfuron-methy-sodium, iodosulfuron-methyl-sodium]", ">35030"),
    ("COc1cc(OC)nc(NC(=O)NS(=O)(=O)c2ncccc2C(=O)N(C)C)n1", ">607"),
    ("COc1cc(OC)n2nc(S(=O)(=O)Nc3c(Cl)ccc(C)c3Cl)nc2n1", ">28840"),
    ("COc1cc(OC)nc(NC(=O)NS(=O)(=O)c2cc(NC=O)ccc2C(=O)N(C)C)n1", ">11748"),
    ("COC(=O)c1sccc1S(=O)(=O)NC(=O)Nc1nc(C)nc(OC)n1", ">2511"),
    ("CCS(=O)(=O)c1cccnc1S(=O)(=O)NC(=O)Nc1nc(OC)cc(OC)n1", ">4466"),
    ("CCS(=O)(=O)c1nc2ccccn2c1S(=O)(=O)NC(=O)Nc1nc(OC)cc(OC)n1", ">4641"),
]

* * *

assaySystem: AHAS P197S-D376E (Arabidopsis thaliana, UniProt P17597, D376E/E575Q/P197S)
Sequence (P17597 56-670 P197S/D376E/E575Q): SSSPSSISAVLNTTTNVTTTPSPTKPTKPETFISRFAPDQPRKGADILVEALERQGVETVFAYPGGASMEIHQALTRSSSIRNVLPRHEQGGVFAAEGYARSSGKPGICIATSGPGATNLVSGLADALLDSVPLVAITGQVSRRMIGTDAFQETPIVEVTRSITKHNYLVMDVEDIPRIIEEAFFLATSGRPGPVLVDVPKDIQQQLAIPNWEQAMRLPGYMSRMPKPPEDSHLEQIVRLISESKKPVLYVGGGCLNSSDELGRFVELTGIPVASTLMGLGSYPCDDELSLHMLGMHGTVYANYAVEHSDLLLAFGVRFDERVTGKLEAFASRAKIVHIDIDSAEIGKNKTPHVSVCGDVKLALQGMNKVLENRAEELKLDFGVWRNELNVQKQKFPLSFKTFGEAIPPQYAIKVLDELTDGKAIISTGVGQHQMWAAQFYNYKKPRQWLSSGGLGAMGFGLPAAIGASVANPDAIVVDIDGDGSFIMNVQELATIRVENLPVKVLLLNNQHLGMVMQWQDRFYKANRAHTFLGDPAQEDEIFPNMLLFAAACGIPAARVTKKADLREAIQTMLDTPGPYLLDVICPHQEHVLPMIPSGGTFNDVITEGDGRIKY
procedureSummary: biochemical
assaySetup: AHAS P197S-D376E
Entries and their measured Resistance Factor follow.

# molecule, Resistance Factor
rows = [
    ("COc1cc(OC)nc(NC(=O)NS(=O)(=O)c2cc(NC=O)ccc2C(=O)N(C)C)n1 [Foramsulfuron, foramsulfuron]", ">11748"),
    ("CCS(=O)(=O)c1cccnc1S(=O)(=O)NC(=O)Nc1nc(OC)cc(OC)n1 [Rimsulfuron, rimsulfuron]", ">4466"),
    ("COc1cc(OC)n2nc(S(=O)(=O)Nc3c(Cl)ccc(C)c3Cl)nc2n1 [Metosulam, metosulam]", ">28840"),
    ("COc1cc(OC)nc(Oc2cccc(Oc3nc(OC)cc(OC)n3)c2C(=O)O)n1 [Bispyribac-sodium, bispyribac-sodium]", 447),
    ("COC(=O)c1ccc(I)cc1S(=O)(=O)[N-]C(=O)Nc1nc(C)nc(OC)n1.[Na+] [Iodosulfuron-methy-sodium, iodosulfuron-methyl-sodium]", ">35030"),
    ("COc1cc(OC)nc(NC(=O)NS(=O)(=O)c2ncccc2C(F)(F)F)n1 [Flazasulfuron, flazasulfuron]", ">120226"),
    ("COC(=O)c1ccc(C(F)(F)F)nc1S(=O)(=O)NC(=O)Nc1nc(OC)cc(OC)n1 [Flupyrsulfuron-methyl]", ">47863"),
]

* * *

assaySystem: AHAS P197S-D376E (Arabidopsis thaliana, UniProt P17597, D376E/E575Q/P197S)
procedureSummary: biochemical
assaySetup: AHAS P197S-D376E
measuredQuantity: Resistance Factor

# smilesRecord, result
records = [
    ("COC(=O)c1sccc1S(=O)(=O)NC(=O)Nc1nc(C)nc(OC)n1", ">2511"),
    ("CCS(=O)(=O)c1nc2ccccn2c1S(=O)(=O)NC(=O)Nc1nc(OC)cc(OC)n1", ">4641"),
    ("COC(=O)c1ccccc1S(=O)(=O)NC(=O)Nc1nc(C)nc(OC)n1", ">7547"),
]

* * *

assaySystem: AHAS D376E (Arabidopsis thaliana, UniProt P17597, D376E/E575Q)
Sequence (P17597 56-670 D376E/E575Q): as the sequence (P17597 56-670 P197S/D376E/E575Q) above, with S142P counted along it
procedureSummary: biochemical
assaySetup: AHAS D376E
measuredQuantity: Resistance Factor

# compound, valueRelationSign, quantitativeResult
measured = [
    ("CCS(=O)(=O)c1nc2ccccn2c1S(=O)(=O)NC(=O)Nc1nc(OC)cc(OC)n1", "=", 1166),
    ("COc1cc(OC)nc(NC(=O)NS(=O)(=O)c2ncccc2C(F)(F)F)n1", "=", 759),
    ("COc1cc(OC)nc(NC(=O)NS(=O)(=O)N(C)S(C)(=O)=O)n1", ">", 488),
    ("COc1cc(OC)nc(Oc2cccc(Oc3nc(OC)cc(OC)n3)c2C(=O)O)n1 [Bispyribac-sodium, bispyribac-sodium]", "=", 56),
]

* * *

assaySystem: AHAS D376E-W574L (Arabidopsis thaliana, UniProt P17597, D376E/E575Q/W574L)
Sequence (P17597 56-670 D376E/W574L/E575Q): as the sequence (P17597 56-670 P197S/D376E/W574L/E575Q) above, with S142P counted along it
procedureSummary: biochemical
assaySetup: AHAS D376E-W574L
measuredQuantity: Resistance Factor

# compound, result
data = [
    ("COc1cc(OC)nc(NC(=O)NS(=O)(=O)N(C)S(C)(=O)=O)n1", ">488"),
    ("CCS(=O)(=O)c1cccnc1S(=O)(=O)NC(=O)Nc1nc(OC)cc(OC)n1", ">4466"),
    ("COC(=O)c1ccc(C(F)(F)F)nc1S(=O)(=O)NC(=O)Nc1nc(OC)cc(OC)n1", ">47863"),
    ("COC(=O)c1sccc1S(=O)(=O)NC(=O)Nc1nc(C)nc(OC)n1", ">2511"),
    ("COC(=O)c1ccc(CNS(C)(=O)=O)cc1S(=O)(=O)NC(=O)Nc1nc(OC)cc(OC)n1", ">64730"),
    ("COC(=O)c1ccc(I)cc1S(=O)(=O)[N-]C(=O)Nc1nc(C)nc(OC)n1.[Na+] [Iodosulfuron-methy-sodium, iodosulfuron-methyl-sodium]", ">35030"),
]
